System: MCF-7 cells
Method Summary: Cytotoxicity study by MTT proliferation assay
Type: cell-based
Test Settings: Homo sapiens, MCF7, inhibition of cell growth, 72 h, read-out: MCF-7 % Inh ± DS (10 μM)
Output Y for inhibition at 10 µM not less than 10%; output N otherwise.

Observe how each entry below is paired with its result.
O=C(O)c1cc2cccc3c2c(c1O)C(=O)C=C3	N
O=C1C=Cc2cccc3ccc(Nc4ccc(Cl)cc4)c1c23	Y
N#Cc1ccc(C2=Cc3cccc4cccc(c34)C2=O)cc1	Y
COc1ccc(NC2=Cc3cccc4cccc(c34)C2=O)cc1	Y
N#Cc1ccc2cccc3c2c1C(=O)C=C3	Y
O=C1C(c2ccoc2)=Cc2cccc3cccc1c23	Y

Attention now shifts to the item below.
Inquiry: Has O=C1C=Cc2cccc3cncc1c23 [Compound 35, 4H-benzo[de]isoquinolin-4-one] a recorded inhibition at 10 µM greater than or equal to 10%?
Reply text: N
